- tested_on: MeCP2-TBL1 interaction (MeCP2-SmBiT / TBL1-LgBiT) (Mus musculus, UniProt Q9QXE7)
- Construct: expressed in transfected cells; crude lysate used as a cell-free assay
- Sequence (Q9QXE7 166-527): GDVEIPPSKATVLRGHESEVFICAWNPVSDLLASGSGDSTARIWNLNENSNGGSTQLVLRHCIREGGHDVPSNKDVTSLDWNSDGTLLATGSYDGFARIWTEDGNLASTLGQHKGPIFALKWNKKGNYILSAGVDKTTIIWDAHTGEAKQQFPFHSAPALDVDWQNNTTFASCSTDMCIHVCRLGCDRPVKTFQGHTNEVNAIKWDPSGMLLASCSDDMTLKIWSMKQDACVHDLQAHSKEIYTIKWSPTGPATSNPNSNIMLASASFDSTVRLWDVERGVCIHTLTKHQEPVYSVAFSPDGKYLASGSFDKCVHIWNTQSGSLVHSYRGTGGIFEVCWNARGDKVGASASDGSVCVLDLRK
- method_summary: MeCP2-TBL1 NanoLuc luciferase complementation assay (cell-free, extracts of transfected HEK293 cells);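 also: each compound tested at 20 µM final concentration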
- Assay type: binding, human
- experimental_setup: primary screen of the Asinex library, sheet "Sargen output Asinex library", one well per compound
Give Inhibition percent for every item shown.
One number for each entry, in %.

compound	unit	Inhibition percent
COCC(=O)N1CC[C@H]2O[C@H]3c4ccccc4OC(C)(C)[C@@H]3C[C@H]21	%	0.0324
O=C1CCCN1CCOc1ccccc1C(=O)N1CCCC(Cc2ccc3ncccc3c2)CC1 (centres unmarked)	%	-0.32
CC(C)(C)OC(=O)N1CC[C@H]2O[C@H]3c4ccccc4OC(C)(C)[C@@H]3C[C@@]2(CO)C1	%	3.83
O=C(c1ccccn1)N1CCCC1c1cc(CCOc2cccc(C(F)(F)F)c2)[nH]n1 (centres unmarked)	%	-1.96
CN1CCC(Cc2cccc(F)c2)(C(=O)N2CCC(Cc3cccc4cccnc34)CC2)CC1	%	-1.74

Please report Inhibition percent for every entry that follows.
1. CN(CCC(=O)N1[C@H](Cc2ccccc2)C[C@]2(C)NC(=O)CCC[C@H]12)Cc1ccccn1
2. Cc1nccc(C2CCCN2Cc2ccc(-c3ccccc3C(=O)O)cc2)n1 (centres unmarked)
3. Cn1cc(-c2cccc(C(=O)N3CCC(c4cccc(Cc5ccc(F)cc5)n4)CC3)n2)cn1

Result ::
[-2.30, -0.80, 2.72]

---

- Test system: PRKACA-PRKAR2A interaction (SmBiT-PRKACA / LgBiT-PRKAR2A), protein kinase A
- Parameters: NanoLuc complementation counter-screen in cell extract, PRKACA with PRKAR2A, loss of luminescence, detects NanoLuc interference
- experimental_setup: counter-screen for NanoLuc interference; 0.5 h, 20 µM; inhibitor
Structures can show the parent of a compound that is named as a salt.
So I've got a bunch of compounds here, and I need their Inh (PKA) values.
Give bare numbers, in %.

Consider the reported Inh (PKA) for these compounds:
compound	tested_on	endpoint_name	measured_number
CCN(CC)C(=O)c1ccc(C2=CC3(CCNCC3)Oc3cccc(O)c32)cc1 [UM0141492:01, ADL5859 HCl]	PRKACA-PRKAR2A interaction (SmBiT-PRKACA / LgBiT-PRKAR2A), protein kinase A	Inh (PKA)	2.676
O=C(O)Cc1cccc(OCCCN(Cc2cccc(C(F)(F)F)c2Cl)CC(c2ccccc2)c2ccccc2)c1 [UM0142045:01, GW3965 HCl]	PRKACA-PRKAR2A interaction (SmBiT-PRKACA / LgBiT-PRKAR2A), protein kinase A	Inh (PKA)	20.75
CCCCCCCCCCCCCCCc1cccc(O)c1C(=O)O	PRKACA-PRKAR2A interaction (SmBiT-PRKACA / LgBiT-PRKAR2A), protein kinase A	Inh (PKA)	5.402
Nc1ccn([C@H]2CC[C@@H](CO)O2)c(=O)n1	PRKACA-PRKAR2A interaction (SmBiT-PRKACA / LgBiT-PRKAR2A), protein kinase A	Inh (PKA)	-0.04839
Cn1cc(-c2ccc3nnc(C(F)(F)c4ccc5ncccc5c4)n3n2)cn1	PRKACA-PRKAR2A interaction (SmBiT-PRKACA / LgBiT-PRKAR2A), protein kinase A	Inh (PKA)	8.714

For each listed entry, give its Inh (PKA).
1. Cn1cc(CNCC2CCN(c3ncc(C(=O)NO)cn3)CC2)c2ccccc21
2. NS(=O)(=O)c1cc(Cl)c(Cl)c(S(N)(=O)=O)c1 [UM0118893:03, Dichlorphenamide]

Result ::
[2.58, -0.9742]
